Where a name gives a salt, the structure may show the parent alone.
result-type: melting point

[
  {
    "compound": "O=C(NC(c1cccc(O)c1)C12CC(CN1)C2)c1cccc(C(F)(F)F)c1Cl (racemic) (as salt: HCl)",
    "melting point": "187 to 188 °C"
  }
]

According to the records, this compound Cc1cccc(C(=O)NC(c2ccccc2)C23CC(CN2)C3)c1Cl (racemic) displays melting point of 139.5 to 140.5 °C

What the record says about O=C(NC(c1ccccc1)C12CC(CN1CC1CC1)C2)c1cccc(C(F)(F)F)c1Cl (racemic) (as salt: HCl) : melting point is 240.5 to 241.5 °C

Measured melting point, CCN1CC2CC1(C(NC(=O)c1c(C)cccc1C)c1ccccc1)C2 (racemic) (as salt: HCl) : 212 to 214 °C

Query CC(C)(O)CN1CC2CC1(C(NC(=O)c1c(Cl)ccc(C(F)(F)F)c1Cl)c1ccccc1)C2 (racemic) (as salt: HCl) yields melting point of 178.5 to 179 °C

// field: melting point; key: Cc1c(C(F)(F)F)ccc(Cl)c1C(=O)NC(c1ccccc1)C12CC(CN1)C2 (racemic) (as salt: HCl) ; value = 200 to 201 °C
